Data provenance: ChEMBL document CHEMBL4261483

- System: Aorta
- Method notes: Vasodilating activity in Sprague-Dawley rat aortic ring precontracted with phenylephrine in absence of endothelium
- Format: functional, tissue-based
For each of the compounds below, state its Emax.
State just the number; it will be interpreted in %.

Request: Give its Emax value. Item: CCCC12CC3CC(N)(C1)CC(O[N+](=O)[O-])(C3)C2 (stereo not drawn)
Response: 61.7

Request: # lookup: Emax of CCC12CC3CC(N)(C1)CC(CO[N+](=O)[O-])(C3)C2 (stereo not drawn)
Response: 98.2

Request: Tell me the measured Emax of CCC12CC3CC(N)(C1)CC(O[N+](=O)[O-])(C3)C2 (stereo not drawn) , please.
Response: 42
